- SYSTEM: T1, human LAG-3 protein with hFc tag (hLAG-3-hFc protein) (human, UniProt P18627 23-450)
- T1 construct: also called immunogen 1; LAG-3 extracellular domain protein; not shown: human IgG Fc fragment (hFc) of the pCpC vector
- T1 sequence: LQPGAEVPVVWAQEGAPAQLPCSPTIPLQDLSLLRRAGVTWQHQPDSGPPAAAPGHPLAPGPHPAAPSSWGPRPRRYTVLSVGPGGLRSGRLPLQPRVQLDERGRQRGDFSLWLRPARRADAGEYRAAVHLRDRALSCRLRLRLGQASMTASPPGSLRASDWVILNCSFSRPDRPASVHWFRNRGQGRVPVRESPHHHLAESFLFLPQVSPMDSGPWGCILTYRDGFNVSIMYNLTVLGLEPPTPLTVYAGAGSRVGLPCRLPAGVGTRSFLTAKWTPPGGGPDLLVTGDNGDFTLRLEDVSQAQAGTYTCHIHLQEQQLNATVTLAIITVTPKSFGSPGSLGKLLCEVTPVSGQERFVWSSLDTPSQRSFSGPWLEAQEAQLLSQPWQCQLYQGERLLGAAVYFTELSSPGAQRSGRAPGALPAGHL
- MEASUREMENT_DESCRIPTION: FACS, blocks LAG-3-hFc binding to MHC II on Raji; 2.469 nM
Binary call on Inhibition rate (%) with cut-off 40%: strictly below means TRUE, and equality or higher means FALSE.

Below, 3 binders whose answers are already recorded.
BINDER | CLASS
556F6B8 (mouse antibody purified from hybridoma) (antibody, V domains shown, also called mAb123-556F6B8) VH: RVQLKQSGPGLVQPSQSLSITCTVSGFSLIKYGVHWVRQSPGEGLEWLGVIWRGGITDYNAAFMSRLSITKDNSKSQVFFKMNSLQADDTAIYYCAKWDGPLAMDYWGQGTSVTVSS VL: DIVMTQSHKFLSTSVGDRVSITCKASQDVGTTVAWYQQKPGQSPKLLIYWASTRHTGVPDRFTGSGSGTDFTLTISNVQSEDLADYFCQQYSSYPYTFGGGTKLEIK | FALSE
409D4E10 (mouse antibody purified from hybridoma) (antibody, V domains shown, also called mAb112-409D4E10) VH: QVQLQQSGAELVRPGASVTLSCKASGNTFTDYEMHWVKQTPVHGLEWIGATDPETDNTAYNQKFKGKAILTTDKSSSTAYMELRSLTSEDSAVYYCITSGWNDWGQGTSLTVSS VL: DIKMTQSPSSMYASLGERVTITCKASQDINSYLSWFQQKPGKSPKTLIYRANRLLDGVPSRFSGSGSGQDYSLTISSLEYEDMGIYYCLQYNEFPYTFGGGTKLEIK | FALSE
405B8H3 (mouse antibody purified from hybridoma) (antibody, V domains shown, also called mAb103-405B8H3; 405B81-13) VH: QVQLQQSGAELVRPGASVTLSCKASGYTFTDYEMHWVKQTPVHGLEWIGATDPETGNSAYNQKFKGKAIMTADKSSSTAYMELRSLTSEDSAVYYCISTGWNDWGQGTSLTVSS VL: DIKMTQSPSSMYASLGERVTITCKASQDINSYLSWFQQKPGKSPKTLIYRADRLLDGVPSRFSGSGSGQDYSLTISSLEYGDMGIYYCLQYDEFPYTFGGGTKLEIK | FALSE

Now look at this one.
In: Input 105F1E10 (mouse antibody purified from hybridoma) (antibody, V domains shown, also called mAb009-105F1E10) VH: EVQLQQSGPELVKPGASVKMSCRASGYTFTDFKMHWMKQSHGKSLEWIGYIAPNNGGTAYNQKFRGKATLTVNESSNTAYMELRSLTSEDSAVYYCVDWDDVDYWGQGTTLTVSS VL: DIKMTQSPSSMYASLGERVTITCKASQDINSYLSWFQQKSGKSPKTLIYRANRLVDGVPSRFSGSGSGQDYSLTISSLEYEDMGIYYCLQYVEFPLTFGAGTKLELK ; condition: Inhibition rate (%) strictly below 40%. Does it hold?
Out: TRUE
